Target: collagenase (Homo sapiens, UniProt P03956)
Construct: endogenous in cells; host or cells: normal human skin fibroblasts (culture medium)
Sequence (P03956 100-469): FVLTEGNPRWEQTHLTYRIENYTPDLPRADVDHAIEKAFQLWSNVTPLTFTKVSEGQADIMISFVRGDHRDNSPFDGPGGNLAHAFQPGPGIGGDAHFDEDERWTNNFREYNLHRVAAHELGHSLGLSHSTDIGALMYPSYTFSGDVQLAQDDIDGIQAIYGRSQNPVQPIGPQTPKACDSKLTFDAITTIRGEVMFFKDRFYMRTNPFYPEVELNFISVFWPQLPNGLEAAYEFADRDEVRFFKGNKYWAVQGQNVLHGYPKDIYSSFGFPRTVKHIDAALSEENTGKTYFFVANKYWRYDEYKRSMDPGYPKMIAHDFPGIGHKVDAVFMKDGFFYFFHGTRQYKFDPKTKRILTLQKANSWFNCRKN
Test: Rate of hydrolysis of substrates by collagenase, assayed by HPLC
Type: biochemical
Details: Comparison of Substrate; assayed by HPLC (no chromophore)
Non-standard residues stand in square brackets, D forms with d. Residues, ends and D or L forms follow the SMILES beside them. *: point of attachment. Dnp = O=[N+]([O-])c1ccc(*)c([N+](=O)[O-])c1
Documented Relative Rate (of hydrolysis) across a set of molecules
Measured property: Relative Rate (of hydrolysis)

Molecule: CCOC(=O)CNC(=O)[C@H](C)NC(=O)[C@H](CC(C)C)NC(=O)CNC(=O)[C@H](CC(C)C)NC(=O)[C@@H]1CCCN1C(C)=O [Ac--Pro--Leu--Gly--Leu--Ala--Gly--OC2 H5] (Ac-PLGLAG-OEt)
Readout number: 110
//
Molecule: CC[C@H](C)[C@H](NC(=O)CNC(=O)[C@H](CCC(N)=O)NC(=O)[C@@H]1CCCN1c1ccc([N+](=O)[O-])cc1[N+](=O)[O-])C(=O)N[C@@H](C)C(=O)NCC(=O)N[C@@H](CCC(N)=O)C(=O)N[C@H](CCCNC(=N)N)C(=O)O [DNP-Pro-Gln-Gly-Ile-Ala-Gly-Gln-D-Arg-OH] (Dnp-PQGIAGQ[dR]-OH)
Readout number: 5
//
Molecule: CC[C@H](C)[C@H](NC(=O)CNC(=O)[C@H](CC(C)C)NC(=O)[C@@H]1CCCN1c1ccc([N+](=O)[O-])cc1[N+](=O)[O-])C(=O)N[C@@H](C)C(=O)NCC(=O)N[C@@H](CCCNC(=N)N)C(N)=O [DNP-Pro-Leu-Gly-Ile-Ala-Gly-Arg-NH2] (Dnp-PLGIAGR-NH2)
Readout number: 25
//
Molecule: CCOC(=O)CNC(=O)[C@H](CC(C)C)NC(=O)[C@H](CC(C)C)NC(=O)CNC(=O)[C@H](CC(C)C)NC(=O)[C@@H]1CCCN1C(C)=O [Ac--Pro--Leu--Gly--Leu--Leu--Gly--OC2 H5] (Ac-PLGLLG-OEt)
Readout number: 250

Measured values drawn from patent US4596675A for this set.
